# measured_on: recombinant wild-type SARS-CoV-2 S trimer (ELISA antigen) (SARS-CoV-2 wild-type, UniProt P0DTC2)
assay_readout: binding result

>>> observed_result("P2-1G7 (antibody, V domains shown) VH: EVQLVESGGGLIQPGGSLRLSCAASGFIVSSNYMTWVRQAPGKGLEWVSVLFSGGSTFYADSVKGRFTISRDNSKNTLYLQMNSLRAEDTAVYYCARENGGYYFDYWGQGTLVTVSS VL: DIQLTQSPSFLSASVGDRVTITCRASQGISTYLAWYQQKPGKAPKLLIYAASTLQSGVPSRFSGSGSGTEFTLTISSLQPEDFATYYCQQLNNYPPDFGGGTKVEIK")
"binds"
>>> observed_result("P2S-2E8 (antibody, V domains shown) VH: EVQLVESGGGLVQPGGSLRLSCAASGFTFSSYWMSWVRQAPGKGLEWVANIKQDGSEKYYVDSVKGRFTISRDNAKNSLYLQMNSLRAEDTAVYYCARDLGILWFGELPNFDPWGQGTLVTVSS VL: DIQMTQSPSSLSASVGDRVTITCRASQGISNSLAWYQQKPGKAPKLLLYAASRLESGVPSRFSGSGSGTDYTLTISSLQPEDFATYYCQQYYSTPPRTFGQGTKVEIK")
"binds"
